assay: Long-term stability in spiked pooled human plasma; details: validation standard LLOV
Readout Type: Long-term stability, 3 month, -80°C Accuracy [%] (%)
I only need the number, in %, no unit after it.

Task item: Specify measured Long-term stability, 3 month, -80°C Accuracy [%] for COC(=O)c1ccc2c(c1)NC(=O)/C2=C(\Nc1ccc(N(C)C(=O)CN2CCN(C)CC2)cc1)c1ccccc1 [Nintedanib] .
Reply: 88.3

Task item: State its Long-term stability, 3 month, -80°C Accuracy [%] for this compound: Cc1nc(Nc2ncc(C(=O)Nc3c(C)cccc3Cl)s2)cc(N2CCN(CCO)CC2)n1 [Dasatinib]
Reply: 85.5

Task item: Quote Long-term stability, 3 month, -80°C Accuracy [%] reported for COc1cc2nccc(Oc3ccc(NC(=O)C4(C(=O)Nc5ccc(F)cc5)CC4)cc3)c2cc1OC [Cabozantinib] please.
Reply: 91.8

Task item: # return recorded Long-term stability, 3 month, -80°C Accuracy [%] for entry COc1cc2nccc(Oc3ccc(NC(=O)NC4CC4)c(Cl)c3)c2cc1C(N)=O [Lenvatinib]
Reply: 110.3

----------
assay: Long-term stability in spiked pooled human plasma; settings: validation standard LLOV
Readout Type: Long-term stability, 2 month, -80°C Accuracy [%]
Write the quantity with the unit trailing the number.

C[C@]12CC[C@H](O)CC1=CC[C@@H]1[C@@H]2CC[C@]2(C)C(c3cccnc3)=CC[C@@H]12 = 105.8%
COc1cc2nccc(Oc3ccc(NC(=O)Nc4cc(C)on4)c(Cl)c3)c2cc1OC = 100.7%
C[C@H]1Oc2cc(cnc2N)-c2c(nn(C)c2C#N)CN(C)C(=O)c2ccc(F)cc21 = 87.6%
CCOc1cc2ncc(C#N)c(Nc3ccc(OCc4ccccn4)c(Cl)c3)c2cc1NC(=O)/C=C/CN(C)C = 88.3%
O=c1[nH]c(=O)n([C@H]2C[C@H](O)[C@@H](CO)O2)cc1C(F)(F)F = 70.3%

Task item: For the molecule Cc1cn(-c2cc(NC(=O)c3ccc(C)c(Nc4nccc(-c5cccnc5)n4)c3)cc(C(F)(F)F)c2)cn1 , give its reported Long-term stability, 2 month, -80°C Accuracy [%].
Reply: 97.4%

Task item: Report Long-term stability, 2 month, -80°C Accuracy [%], nothing else, for this molecule: CO[C@@H]1[C@H](N(C)C(=O)c2ccccc2)C[C@H]2O[C@]1(C)n1c3ccccc3c3c4c(c5c6ccccc6n2c5c31)C(=O)NC4
Reply: 101.2%

Task item: Specify Long-term stability, 2 month, -80°C Accuracy [%] for C[C@@H](Oc1cc(-c2cnn(C3CCNCC3)c2)cnc1N)c1c(Cl)ccc(F)c1Cl and stop.
Reply: 78.9%

Task item: Look up Long-term stability, 2 month, -80°C Accuracy [%] of COc1cc2ncnc(Nc3ccc(F)c(Cl)c3)c2cc1OCCCN1CCOCC1 and report it.
Reply: 102.7%

Task item: Quick one: give measured Long-term stability, 2 month, -80°C Accuracy [%] for CCN(CC)CCNC(=O)c1c(C)[nH]c(/C=C2\C(=O)Nc3ccc(F)cc32)c1C
Reply: 112.8%

Task item: Please give the documented Long-term stability, 2 month, -80°C Accuracy [%] of COc1cc2c(Nc3ccc(Br)cc3F)ncnc2cc1OCC1CCN(C)CC1
Reply: 97.6%

Task item: Identify Long-term stability, 2 month, -80°C Accuracy [%] associated with the molecule Cc1[nH]c2ccccc2c1CCNCc1ccc(/C=C/C(=O)NO)cc1
Reply: 29.9%

Task item: Note Long-term stability, 2 month, -80°C Accuracy [%] for the molecule shown: CS(=O)(=O)c1ccc(C(=O)Nc2ccc(Cl)c(-c3ccccn3)c2)c(Cl)c1
Reply: 96.9%

Task item: Respond only with Long-term stability, 2 month, -80°C Accuracy [%] recorded for CNC(=O)c1ccccc1Sc1ccc2c(/C=C/c3ccccn3)n[nH]c2c1
Reply: 90.5%

Task item: Report measured Long-term stability, 2 month, -80°C Accuracy [%]; entry is CN(C)C/C=C/C(=O)Nc1cc2c(Nc3ccc(F)c(Cl)c3)ncnc2cc1O[C@H]1CCOC1
Reply: 85.8%

Task item: Fill in reported Long-term stability, 2 month, -80°C Accuracy [%] for this entry: CCc1cc2c(cc1N1CCC(N3CCOCC3)CC1)C(C)(C)c1[nH]c3cc(C#N)ccc3c1C2=O
Reply: 81.8%

Task item: Give Long-term stability, 2 month, -80°C Accuracy [%] for COc1cc2nccc(Oc3ccc(NC(=O)NC4CC4)c(Cl)c3)c2cc1C(N)=O
Reply: 108.7%

Task item: Provide measured Long-term stability, 2 month, -80°C Accuracy [%] value, entry: Cc1cc(Nc2ncc(Cl)c(Nc3ccccc3S(=O)(=O)C(C)C)n2)c(OC(C)C)cc1C1CCNCC1
Reply: 103.7%

Task item: Specify measured Long-term stability, 2 month, -80°C Accuracy [%] for CC(=O)Nc1cccc(-n2c(=O)n(C3CC3)c(=O)c3c(Nc4ccc(I)cc4F)n(C)c(=O)c(C)c32)c1 .
Reply: 103.4%

Task item: Please give the documented Long-term stability, 2 month, -80°C Accuracy [%] of CNC(=O)c1cc(Oc2ccc(NC(=O)Nc3ccc(Cl)c(C(F)(F)F)c3)cc2)ccn1
Reply: 106.5%

Task item: // Input: O=C(c1cc(Cc2n[nH]c(=O)c3ccccc23)ccc1F)N1CCN(C(=O)C2CC2)CC1 . Output its Long-term stability, 2 month, -80°C Accuracy [%] only.
Reply: 115.8%

Task item: Return value of Long-term stability, 2 month, -80°C Accuracy [%] for input CNC(=O)c1cc(Oc2ccc(NC(=O)Nc3ccc(Cl)c(C(F)(F)F)c3)c(F)c2)ccn1 , no commentary.
Reply: 104.7%

----------
Below, each entry is listed with its recorded Long-term stability, 2 month, -20°C Accuracy [%].
assay: Long-term stability in spiked pooled human plasma; conditions: validation standard MOV
Please state the figure in %; there is no need to write the unit.

A selection of reference data follows.
CCOc1cc2ncc(C#N)c(Nc3ccc(OCc4ccccn4)c(Cl)c3)c2cc1NC(=O)/C=C/CN(C)C = 81.2
Cc1cc(Nc2ncc(Cl)c(Nc3ccccc3S(=O)(=O)C(C)C)n2)c(OC(C)C)cc1C1CCNCC1 = 94.6
CO[C@@H]1[C@H](N(C)C(=O)c2ccccc2)C[C@H]2O[C@]1(C)n1c3ccccc3c3c4c(c5c6ccccc6n2c5c31)C(=O)NC4 = 113.7

Task item: Supply recorded Long-term stability, 2 month, -20°C Accuracy [%] for COc1cc2nccc(Oc3ccc(NC(=O)Nc4cc(C)on4)c(Cl)c3)c2cc1OC here.
Reply: 102.0

Task item: Note Long-term stability, 2 month, -20°C Accuracy [%] for the molecule shown: CNC(=O)c1ccc(N2C(=S)N(c3cnc(C#N)c(C(F)(F)F)c3)C(=O)C23CCC3)cc1F [Apalutamide]
Reply: 90.2

Task item: Using known records, supply Long-term stability, 2 month, -20°C Accuracy [%] for O=C1CN2Cc3c(ccc(Cl)c3Cl)N=C2N1 [Anagrelide]
Reply: 101.3

Task item: Write down Long-term stability, 2 month, -20°C Accuracy [%] measured for item O=C(Nc1cnn2ccc(N3CCC[C@@H]3c3cc(F)ccc3F)nc12)N1CC[C@H](O)C1
Reply: 99.1

Task item: Identify Long-term stability, 2 month, -20°C Accuracy [%] associated with the molecule CNCc1ccc(-c2[nH]c3cc(F)cc4c3c2CCNC4=O)cc1
Reply: 104.6

----------
test: Freeze-thaw stability in spiked pooled human plasma; assay type: physicochemical; settings: validation standard LLOV
Readout Type: Freeze-Thaw Accuracy [%] (%)
Express it in %; write the number only.

Use these answered entries as a reference point.
C[C@]12CC[C@H](O)CC1=CC[C@@H]1[C@@H]2CC[C@]2(C)C(c3cccnc3)=CC[C@@H]12 [Abiraterone] = 105.9
O=c1[nH]c(=O)n([C@H]2C[C@H](O)[C@@H](CO)O2)cc1C(F)(F)F [Trifluridine] = 80.9
COc1cc(Nc2c(C#N)cnc3cc(OCCCN4CCN(C)CC4)c(OC)cc23)c(Cl)cc1Cl [Bosutinib] = 102.2
O=C(c1ccc(F)c(F)c1Nc1ccc(I)cc1F)N1CC(O)([C@@H]2CCCCN2)C1 [Cobimetinib] = 98.3
CO[C@@H]1[C@H](N(C)C(=O)c2ccccc2)C[C@H]2O[C@]1(C)n1c3ccccc3c3c4c(c5c6ccccc6n2c5c31)C(=O)NC4 [Midostaurin] = 100.6

Task item: Report measured Freeze-Thaw Accuracy [%]; entry is CCN1CCN(Cc2ccc(Nc3ncc(F)c(-c4cc(F)c5nc(C)n(C(C)C)c5c4)n3)nc2)CC1 [Abemaciclib]
Reply: 90.4

Task item: Dear colleague, please send me the reported Freeze-Thaw Accuracy [%] for COc1cc2c(Nc3ccc(Br)cc3F)ncnc2cc1OCC1CCN(C)CC1 [Vandetanib] when you can.
Reply: 83.4

----------
test: Long-term stability in spiked pooled human plasma; details: validation standard LLOV
List of Long-term stability, 3 month, -80°C Accuracy [%] values.
Quick reminder: number only, in %, skip the unit.

COC(=O)N[C@@H](C)CNc1nccc(-c2cn(C(C)C)nc2-c2cc(Cl)cc(NS(C)(=O)=O)c2F)n1 = 94.9
Cn1cnc2c(F)c(Nc3ccc(Br)cc3F)c(C(=O)NOCCO)cc21 = 104.6
CNC(=O)c1ccc(N2C(=S)N(c3ccc(C#N)c(C(F)(F)F)c3)C(=O)C2(C)C)cc1F [Enzalutamide] = 88.4

Task item: Respond only with Long-term stability, 3 month, -80°C Accuracy [%] recorded for Cc1[nH]c2ccccc2c1CCNCc1ccc(/C=C/C(=O)NO)cc1
Reply: 34.0

Task item: Give a short answer stating reported Long-term stability, 3 month, -80°C Accuracy [%] for C=CC(=O)Nc1cc(Nc2nccc(-c3cn(C)c4ccccc34)n2)c(OC)cc1N(C)CCN(C)C .
Reply: 91.8

Task item: Respond only with Long-term stability, 3 month, -80°C Accuracy [%] recorded for CNC(=O)c1ccccc1Sc1ccc2c(/C=C/c3ccccn3)n[nH]c2c1
Reply: 102.5

Task item: In one line, give reported Long-term stability, 3 month, -80°C Accuracy [%] of the entry CNC(=O)c1cc(Oc2ccc(NC(=O)Nc3ccc(Cl)c(C(F)(F)F)c3)cc2)ccn1 .
Reply: 111.4

Task item: Please look at this compound and report its Long-term stability, 3 month, -80°C Accuracy [%]: CCN1CCN(Cc2ccc(Nc3ncc(F)c(-c4cc(F)c5nc(C)n(C(C)C)c5c4)n3)nc2)CC1
Reply: 101.8
